Biological target: POU1 (OCT1 POU domain) (human, UniProt P14859 260-458)
Sequence (P14859 260-458): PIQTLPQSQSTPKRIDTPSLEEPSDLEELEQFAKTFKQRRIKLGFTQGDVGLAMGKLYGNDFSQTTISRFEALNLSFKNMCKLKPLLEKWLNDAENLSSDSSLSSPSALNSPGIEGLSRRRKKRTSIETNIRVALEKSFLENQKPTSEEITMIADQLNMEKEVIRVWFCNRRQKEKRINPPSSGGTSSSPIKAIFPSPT
Experiment: EMSA-SELEX-seq; no BOB1; 20 mM Tris-HCl pH 7.6, 140 mM NaCl, 10% glycerol, 0.5 mM EDTA, 0.05% Triton X-100, 0.1 mg/mL BSA, 0.1 mg/mL poly(dI-dC), 5 mM DTT, room temperature, 20 min; high values mean tight binding
Conditions: protein: recombinant; dsDNA, one strand shown
I'd be grateful if you could share measured binding signal for these entries.

[
  {
    "biosequence": "ACCGCAAA",
    "binding signal": "0.0179 % of ANNNNAAN 8-mers"
  },
  {
    "biosequence": "ACACAAAT",
    "binding signal": "0.116 % of ANNNNAAN 8-mers"
  },
  {
    "biosequence": "ATAACAAG",
    "binding signal": "0.0458 % of ANNNNAAN 8-mers"
  },
  {
    "biosequence": "AGAACAAA",
    "binding signal": "0.032 % of ANNNNAAN 8-mers"
  },
  {
    "biosequence": "AGTACAAC",
    "binding signal": "0.0164 % of ANNNNAAN 8-mers"
  }
]

For each of the items listed, what is its binding signal?
1. AATGAAAA
2. ATTGGAAC
3. AACGAAAG
4. ATAGTAAC
5. ACCGAAAT
6. AAGCGAAG
7. ACTGGAAC
8. AACACAAT

["0.164 % of ANNNNAAN 8-mers", "0.0313 % of ANNNNAAN 8-mers", "0.0313 % of ANNNNAAN 8-mers", "0.0282 % of ANNNNAAN 8-mers", "0.0404 % of ANNNNAAN 8-mers", "0.0271 % of ANNNNAAN 8-mers", "0.0168 % of ANNNNAAN 8-mers", "0.0351 % of ANNNNAAN 8-mers"]

For each of the items listed, what is its binding signal?
1. AATATAAA
2. AAGGTAAC

1. 0.156 % of ANNNNAAN 8-mers
2. 0.0313 % of ANNNNAAN 8-mers

For each of the items listed, what is its binding signal?
1. AATTAAAG
2. AATTTAAG
3. AAACGAAC

["0.187 % of ANNNNAAN 8-mers", "0.15 % of ANNNNAAN 8-mers", "0.0328 % of ANNNNAAN 8-mers"]

For each of the items listed, what is its binding signal?
1. AAGGAAAC
2. AGAGTAAA
3. ACTGTAAC

1. 0.0385 % of ANNNNAAN 8-mers
2. 0.0564 % of ANNNNAAN 8-mers
3. 0.0175 % of ANNNNAAN 8-mers

For each of the items listed, what is its binding signal?
1. ACACCAAG
2. ACACAAAG
3. ATTGCAAG
4. AAGGGAAA

["0.0103 % of ANNNNAAN 8-mers", "0.0309 % of ANNNNAAN 8-mers", "0.0271 % of ANNNNAAN 8-mers", "0.196 % of ANNNNAAN 8-mers"]

For each of the items listed, what is its binding signal?
1. AGTCAAAA
2. ACTCTAAC
3. ACGGCAAG
4. AATACAAC
5. ATTAAAAC
6. ATCGCAAA
7. AACTTAAC

0.164 % of ANNNNAAN 8-mers
0.013 % of ANNNNAAN 8-mers
0.0206 % of ANNNNAAN 8-mers
0.0412 % of ANNNNAAN 8-mers
0.108 % of ANNNNAAN 8-mers
0.0515 % of ANNNNAAN 8-mers
0.0294 % of ANNNNAAN 8-mers

* * *

Target: POU1 (OCT1 POU domain) (human, UniProt P14859 260-458)
Assay: EMSA-SELEX-seq; no BOB1; 20 mM Tris-HCl pH 7.6, 140 mM NaCl, 10% glycerol, 0.5 mM EDTA, 0.05% Triton X-100, 0.1 mg/mL BSA, 0.1 mg/mL poly(dI-dC), 5 mM DTT, room temperature, 20 min; high values mean tight binding
Details: protein: recombinant; dsDNA, one strand shown
quantity-kind: binding signal

// below: answered sequences
[
  {
    "biosequence": "AGATGAAG",
    "tested-on": "POU1 (OCT1 POU domain) (human, UniProt P14859 260-458)",
    "binding signal": "0.0328 % of ANNNNAAN 8-mers"
  },
  {
    "biosequence": "ACACCAAT",
    "tested-on": "POU1 (OCT1 POU domain) (human, UniProt P14859 260-458)",
    "binding signal": "0.0187 % of ANNNNAAN 8-mers"
  }
]

For each of the items listed, what is its binding signal?
1. AAAATAAA
2. ATACGAAT
3. ATTGAAAA
4. AGCAGAAA
5. ATTAAAAT
6. ACCGTAAT
7. ATTTTAAG

1. 0.153 % of ANNNNAAN 8-mers
2. 0.0908 % of ANNNNAAN 8-mers
3. 0.09 % of ANNNNAAN 8-mers
4. 0.0374 % of ANNNNAAN 8-mers
5. 0.614 % of ANNNNAAN 8-mers
6. 0.0454 % of ANNNNAAN 8-mers
7. 0.108 % of ANNNNAAN 8-mers

For each of the items listed, what is its binding signal?
1. ACAACAAG
2. AATGCAAC
3. AGCAAAAG
4. ATAGCAAC
5. ACCAAAAA
6. ATAAGAAA
7. ATGGCAAA
8. ACCAGAAG

1. 0.0248 % of ANNNNAAN 8-mers
2. 0.0435 % of ANNNNAAN 8-mers
3. 0.0442 % of ANNNNAAN 8-mers
4. 0.0183 % of ANNNNAAN 8-mers
5. 0.0336 % of ANNNNAAN 8-mers
6. 0.1 % of ANNNNAAN 8-mers
7. 0.0774 % of ANNNNAAN 8-mers
8. 0.0137 % of ANNNNAAN 8-mers

For each of the items listed, what is its binding signal?
1. ACAGCAAA
2. AAGGAAAT
3. ATTTGAAC
4. AACTTAAT
5. AAGGGAAT
6. AAGTCAAG
7. ACGTAAAC
8. AACACAAA

1. 0.0248 % of ANNNNAAN 8-mers
2. 0.199 % of ANNNNAAN 8-mers
3. 0.0496 % of ANNNNAAN 8-mers
4. 0.0995 % of ANNNNAAN 8-mers
5. 0.115 % of ANNNNAAN 8-mers
6. 0.0332 % of ANNNNAAN 8-mers
7. 0.0358 % of ANNNNAAN 8-mers
8. 0.0454 % of ANNNNAAN 8-mers

* * *

Target: POU2 (OCT2 POU domain) (human, UniProt P09086 175-386)
Sequence: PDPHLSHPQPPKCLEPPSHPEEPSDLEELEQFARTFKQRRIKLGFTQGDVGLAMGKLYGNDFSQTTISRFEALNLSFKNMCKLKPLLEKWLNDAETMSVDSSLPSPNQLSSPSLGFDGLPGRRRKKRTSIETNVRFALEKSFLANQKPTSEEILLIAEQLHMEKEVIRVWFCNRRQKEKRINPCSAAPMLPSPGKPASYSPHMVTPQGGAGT
Experiment: EMSA-SELEX-seq; no BOB1; 20 mM Tris-HCl pH 7.6, 140 mM NaCl, 10% glycerol, 0.5 mM EDTA, 0.05% Triton X-100, 0.1 mg/mL BSA, 0.1 mg/mL poly(dI-dC), 5 mM DTT, room temperature, 20 min; high values mean tight binding
Details: protein: recombinant; dsDNA, one strand shown
I'd be grateful if you could share measured binding signal for these entries.

[
  {
    "biosequence": "AACGTAAA",
    "tested-on": "POU2 (OCT2 POU domain) (human, UniProt P09086 175-386)",
    "quantity-kind": "binding signal",
    "observed-value": "0.0639 % of ANNNNAAN 8-mers"
  },
  {
    "biosequence": "ATTAAAAG",
    "tested-on": "POU2 (OCT2 POU domain) (human, UniProt P09086 175-386)",
    "quantity-kind": "binding signal",
    "observed-value": "0.171 % of ANNNNAAN 8-mers"
  },
  {
    "biosequence": "AACACAAT",
    "tested-on": "POU2 (OCT2 POU domain) (human, UniProt P09086 175-386)",
    "quantity-kind": "binding signal",
    "observed-value": "0.0351 % of ANNNNAAN 8-mers"
  },
  {
    "biosequence": "AGACGAAT",
    "tested-on": "POU2 (OCT2 POU domain) (human, UniProt P09086 175-386)",
    "quantity-kind": "binding signal",
    "observed-value": "0.0581 % of ANNNNAAN 8-mers"
  }
]

For each of the items listed, what is its binding signal?
1. ATGACAAA
2. AGAGGAAT
3. ATGGGAAT
4. AGGCGAAT
5. AACTGAAC
6. ATGAAAAT
7. AATAGAAT

1: 0.0639 % of ANNNNAAN 8-mers; 2: 0.115 % of ANNNNAAN 8-mers; 3: 0.128 % of ANNNNAAN 8-mers; 4: 0.069 % of ANNNNAAN 8-mers; 5: 0.019 % of ANNNNAAN 8-mers; 6: 0.304 % of ANNNNAAN 8-mers; 7: 0.136 % of ANNNNAAN 8-mers

For each of the items listed, what is its binding signal?
1. AGTTGAAT
2. ATGTCAAA
3. ATTGTAAA
4. ACATGAAG

1: 0.119 % of ANNNNAAN 8-mers; 2: 0.0673 % of ANNNNAAN 8-mers; 3: 0.106 % of ANNNNAAN 8-mers; 4: 0.0449 % of ANNNNAAN 8-mers

For each of the items listed, what is its binding signal?
1. ACGAGAAT
2. ATTGAAAT
3. ATGTCAAC
4. ATGACAAG
5. ATTACAAG

1: 0.0547 % of ANNNNAAN 8-mers; 2: 0.29 % of ANNNNAAN 8-mers; 3: 0.023 % of ANNNNAAN 8-mers; 4: 0.0351 % of ANNNNAAN 8-mers; 5: 0.0875 % of ANNNNAAN 8-mers

For each of the items listed, what is its binding signal?
1. ACTACAAA
2. ATATCAAC
3. ACAATAAC
4. AACTAAAT

1: 0.0391 % of ANNNNAAN 8-mers; 2: 0.0449 % of ANNNNAAN 8-mers; 3: 0.0259 % of ANNNNAAN 8-mers; 4: 0.0811 % of ANNNNAAN 8-mers
